- TEST NAME: AUC in nude mouse xenografted with human SJSA1 cells at 50 mg/kg, po
- Format: ADME, organism-based, SJSA-1
- Design: dose 50 mg/kg, route oral
- CONDITIONS USED: in vivo
QUANTITY MEASURED: AUC (µg·h/mL)

>>> numeric_readout("CCOc1cc(C(C)(C)C)ccc1C1=N[C@@](C)(c2ccc(Cl)cc2)[C@@](C)(c2ccc(Cl)cc2)N1C(=O)N1CCN(CCCS(C)(=O)=O)CC1")
200

---

- Tested on: RKO
- TEST NAME: cells
- CONDITIONS USED: Homo sapiens
- Description: Cytotoxicity against human RKO cells expressing wild type p53 assessed as growth inhibition by MTT assay
Recorded IC50, one value per entry.
QUANTITY MEASURED: IC50 (nM)

>>> numeric_readout("COc1cc(C(=O)O)ccc1NC(=O)[C@@H]1N[C@@H](CC(C)(C)C)[C@](C#N)(c2ccc(Cl)cc2F)[C@H]1c1cccc(Cl)c1F")
70
>>> numeric_readout("COc1cc(NC(=O)[C@@H]2N[C@@H](CC(C)(C)C)[C@](C#N)(c3ccc(Cl)cc3F)[C@H]2c2cccc(Cl)c2F)ccc1C(=O)O")
140
>>> numeric_readout("CC(C)(C)C[C@@H]1N[C@@H](C(=O)Nc2ccn(CC(C)(C)O)n2)[C@H](c2cccc(Cl)c2F)[C@@]1(C#N)c1ccc(Cl)cc1F")
1420

src = ChEMBL document CHEMBL2401690
